- assay: chemical genetic growth profiling, strain panel (AID 1159580);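 further: tested at 20 µM; growth read once vehicle control cultures reached saturation at 30 °C; 1 = growth at the plate median or of vehicle wells; lower values mean less growth of the strain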
- condition: S. cerevisiae deletion strains, growth OD, locus YJL154C, strain vps35, stronger effect = lower value
The campaign covered roughly 5,500 compounds. About 2,000 (36%) were called active. Another 18% or so got no clear call; they are omitted. The list shows a part of the results.
measured-metric: normalized growth
Please respond with just the number, no unit label.

IN: For the molecule C[C@H]1C[C@@H](O)[C@]2(O)[C@@]13CC(=O)OC[C@@]2(C)[C@](C)(O)C(=O)C3 , what normalized growth is on record?
OUT: 1.01

IN: For the molecule COC(=O)[C@@H]1OC(=O)C2OC23[C@@]1(C)CCC1[C@@]2(C)CCC(=O)C(C)(C)C2C[C@@H](OC(C)=O)[C@]13C (stereo not given in full) , what normalized growth is on record?
OUT: 1.03

IN: For the molecule Cc1nnc(NS(=O)(=O)c2ccc(N)cc2)s1 , what normalized growth is on record?
OUT: 1.01

IN: For the molecule O=C1CCCN1CC#CCN1CCCC1 , what normalized growth is on record?
OUT: 1.01

IN: For the molecule COc1ccnc(CS(=O)c2nc3ccc(OC(F)F)cc3[nH]2)c1OC (stereo not given) , what normalized growth is on record?
OUT: 1.02
